Test: in vivo
Settings: male, cynomolgus monkey, iv, 0.12 mg/kg
# clearance listing for each entry below
Please state the figure in mL/min/kg; there is no need to write the unit.

Solved entries:
Cc1cc(-n2nc3c(c2-n2ccn(-c4ccc5c(cnn5C)c4F)c2=O)[C@@H]2COC[C@H](C3)N2C(=O)c2cc3cc([C@H]4CCOC(C)(C)C4)ccc3n2[C@@]2(c3noc(=O)[nH]3)C[C@@H]2C)cc(C)c1F [Compound 121] | 11.4
Cc1cc(-n2nc3c(c2-n2ccn(-c4ccc5c(cnn5C)c4F)c2=O)[C@@H]2CC[C@H](C3)N2C(=O)c2cc3cc([C@H]4CCOC5(CC5)C4)ccc3n2[C@@]2(c3noc(=O)[nH]3)C[C@@H]2C)cc(C)c1F [Compound 214] | 3.4

Next, consider the following compound.
# query: clearance of entry Cc1cc(-n2nc3c(c2-n2ccn(-c4ccc5c(cnn5C)c4F)c2=O)[C@@H]2CC[C@H](C3)N2C(=O)c2cc3cc([C@H]4CCOC(C)(C)C4)ccc3n2[C@@]2(c3noc(=O)[nH]3)C[C@@H]2C)cc(C)c1F [Compound 36]
3.98

----------
Below, each entry is listed alongside its reported pEC50.
Target: human GLP-1R (Homo sapiens, UniProt P43220)
Construct: host or cells: HEK293
Sequence (P43220 24-463): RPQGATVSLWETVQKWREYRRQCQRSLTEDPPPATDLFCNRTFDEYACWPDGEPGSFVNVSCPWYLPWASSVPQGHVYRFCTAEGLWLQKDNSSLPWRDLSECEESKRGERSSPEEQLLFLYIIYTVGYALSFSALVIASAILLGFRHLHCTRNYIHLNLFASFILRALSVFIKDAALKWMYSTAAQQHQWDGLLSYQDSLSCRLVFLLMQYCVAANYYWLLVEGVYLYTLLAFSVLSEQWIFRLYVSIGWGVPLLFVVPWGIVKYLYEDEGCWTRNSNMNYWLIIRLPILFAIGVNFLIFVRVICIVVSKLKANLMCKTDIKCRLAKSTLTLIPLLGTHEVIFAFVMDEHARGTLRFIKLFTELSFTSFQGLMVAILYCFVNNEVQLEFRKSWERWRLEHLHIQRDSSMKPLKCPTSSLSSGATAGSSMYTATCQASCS
Assay: GLP-1R cAMP assay (Example B1a, HTRF, 30 min at room temperature)
Assay type: cell-based
Conditions: cAMP accumulation in HEK293 expressing human GLP-1R, no BETP, 30 min room temperature (Method B1a, compounds ID 1-609), Table 1; read-out: EC50
Protocol: Assay was carried out with HEK293 expressing human GLP-1R using HTRF assay, developed by Wuxi Apptec. The method is a competitive assay between native cAMP produced by the cells and exogenous cAMP labeled with a proprietary dye d2. […] Plates were read on Envision plate reader. The data were analyzed by ScreenUltra in Dotmatics, with % activation expressed using following formula: (Well data−negative control)/(postive control−negative control)*100. […]
pEC50 field: float, defined as -log10 of concentration (mol/L).

Cc1cc(-n2nc3c(c2-n2ccn(-c4ccc5c(cnn5C)c4F)c2=O)[C@@H]2CC[C@H](C3)N2C(=O)c2cc3cc([C@H]4CCOC(C)(C)C4)ccc3n2C2(c3noc(=O)[nH]3)CC2)cc(C)c1F | 6.23

Now examine the next entry.
Give the reported pEC50 for Cc1cc(-n2nc3c(c2-n2ccn(-c4ccc5c(cnn5C)c4F)c2=O)[C@@H]2CC[C@H](C3)N2C(=O)c2cc3ccc([C@H]4CCOC(C)(C)C4)cc3nc2[C@@]2(c3noc(=O)[nH]3)C[C@@H]2C)cc(C)c1F (system: human GLP-1R (Homo sapiens, UniProt P43220)).
6.06

----------
Assay: Pharmacokinetic analysis in male SD rats
Assay type: in vivo
Settings: Sprague-Dawley (SD), rat, plasma, 1.0 mg/kg iv, read-out: Vdss
readout: Vd (L/kg)
// note: answer is a bare numeric in L/kg

Known Vd results, listed for orientation:
Cc1cc(-n2nc3c(c2-n2ccn(-c4ccc5c(cnn5C)c4F)c2=O)[C@@H]2CC[C@H](C3)N2C(=O)c2cc3cc([C@H]4CCOC(C)(C)C4)ccc3n2[C@@]2(c3noc(=O)[nH]3)C[C@@H]2C)cc(C)c1F | 1.09
Cc1cc(-n2nc3c(c2-n2ccn(-c4ccc5c(cnn5C)c4F)c2=O)[C@@H]2COC[C@H](C3)N2C(=O)c2cc3cc([C@H]4CCOC(C)(C)C4)ccc3n2[C@@]2(c3noc(=O)[nH]3)C[C@@H]2C)cc(C)c1F | 1.24
Cc1cc(-n2nc3c(c2-n2ccn(-c4ccc5c(cnn5C)c4F)c2=O)[C@H](C)N(C(=O)c2cc4cc([C@H]5CCOC(C)(C)C5)ccc4n2[C@@]2(c4noc(=O)[nH]4)C[C@@H]2C)CC3)cc(C)c1F [Orforglipron, orforglipron, reference compound] | 1.42

# evaluate next
# query: Vd of entry Cc1cc(-n2nc3c(c2-n2ccn(-c4ccc5c(cnn5C)c4F)c2=O)[C@@H]2CC[C@H](C3)N2C(=O)c2cc3cc([C@H]4CCOC5(CC5)C4)ccc3n2[C@@]2(c3noc(=O)[nH]3)C[C@@H]2C)cc(C)c1F
1.08

----------
The entries below come with measured half-life values attached.
Assay: in vivo
Settings: male, cynomolgus monkey, po, 0.36 mg/kg
The reply should contain only the number, in h.

Cc1cc(-n2nc3c(c2-n2ccn(-c4ccc5c(cnn5C)c4F)c2=O)[C@@H]2CC[C@H](C3)N2C(=O)c2cc3cc([C@H]4CCOC5(CC5)C4)ccc3n2[C@@]2(c3noc(=O)[nH]3)C[C@@H]2C)cc(C)c1F | 3.56
Cc1cc(-n2nc3c(c2-n2ccn(-c4ccc5c(cnn5C)c4F)c2=O)[C@@H]2CC[C@H](C3)N2C(=O)c2cc3cc([C@H]4CCOC(C)(C)C4)ccc3n2[C@@]2(c3noc(=O)[nH]3)C[C@@H]2C)cc(C)c1F | 4.22

Need half-life, item Cc1cc(-n2nc3c(c2-n2ccn(-c4ccc5c(cnn5C)c4F)c2=O)[C@@H]2COC[C@H](C3)N2C(=O)c2cc3cc([C@H]4CCOC(C)(C)C4)ccc3n2[C@@]2(c3noc(=O)[nH]3)C[C@@H]2C)cc(C)c1F
1.94

----------
Target: human GLP-1R (Homo sapiens, UniProt P43220)
Construct: host or cells: HEK293
Assay: GLP-1R cAMP assay (Example B1a, HTRF, 30 min at room temperature)
Assay type: cell-based
Settings: cAMP accumulation in HEK293 expressing human GLP-1R, no BETP, 30 min room temperature (Method B1a, compounds ID 1-609), Table 1; read-out: EC50
readout: pEC50
As a rule, pEC50 stands for the negative log10 of the concentration, concentration in M.

// map Cc1cc(-n2nc3c(c2-n2ccn(-c4ccc5c(cnn5C)c4F)c2=O)CN(C(=O)c2cc4cc([C@H]5CCOC(C)(C)C5)ccc4n2[C@@]2(c4noc(=O)[nH]4)C[C@@H]2C)CCC3)cc(C)c1F to recorded pEC50 (system: human GLP-1R (Homo sapiens, UniProt P43220))
6.79

----------
Assay: Pharmacokinetic analysis in male SD rats
Format: in vivo
Details: Sprague-Dawley (SD), rat, plasma, 1.0 mg/kg iv
readout: clearance (mL/min/kg)
Please respond with the number in mL/min/kg and leave the unit unwritten.

Cc1cc(-n2nc3c(c2-n2ccn(-c4ccc5c(cnn5C)c4F)c2=O)[C@@H]2COC[C@H](C3)N2C(=O)c2cc3cc([C@H]4CCOC(C)(C)C4)ccc3n2[C@@]2(c3noc(=O)[nH]3)C[C@@H]2C)cc(C)c1F [Compound 121] | 5.02

What clearance value was documented for this molecule, Cc1cc(-n2nc3c(c2-n2ccn(-c4ccc5c(cnn5C)c4F)c2=O)[C@@H]2CC[C@H](C3)N2C(=O)c2cc3cc([C@H]4CCOC5(CC5)C4)ccc3n2[C@@]2(c3noc(=O)[nH]3)C[C@@H]2C)cc(C)c1F [Compound 214] ?
3.68

Item: Cc1cc(-n2nc3c(c2-n2ccn(-c4ccc5c(cnn5C)c4F)c2=O)[C@H](C)N(C(=O)c2cc4cc([C@H]5CCOC(C)(C)C5)ccc4n2[C@@]2(c4noc(=O)[nH]4)C[C@@H]2C)CC3)cc(C)c1F [Orforglipron, orforglipron, reference compound]
2.47

Also need Cc1cc(-n2nc3c(c2-n2ccn(-c4ccc5c(cnn5C)c4F)c2=O)[C@@H]2CC[C@H](C3)N2C(=O)c2cc3cc([C@H]4CCOC(C)(C)C4)ccc3n2[C@@]2(c3noc(=O)[nH]3)C[C@@H]2C)cc(C)c1F [Compound 36] , thanks.
3.33

----------
Target: human GLP-1R (Homo sapiens)
Construct: host or cells: HEK293
Assay: GLP-1R cAMP assay (Example B1a, HTRF, 30 min at room temperature)
Format: cell-based
Settings: Table 1d, potency ratio of stereoisomer pair (less potent / more potent isomer)
readout: EC50 Ratio

Cc1cc(-n2nc3c(c2-n2ccn(-c4ccc5c(cnn5C)c4F)c2=O)[C@@H]2CC[C@H]([C@H]3F)N2C(=O)c2cc3cc([C@H]4CCOC(C)(C)C4)ccc3n2[C@@]2(c3noc(=O)[nH]3)C[C@@H]2C)cc(C)c1F [Compound 512] | >83
Cc1cc(-n2nc3c(c2-n2ccn(-c4ccc5c(cnn5C)c4F)c2=O)[C@@H]2COC[C@H](C3)N2C(=O)c2cc3cc([C@H]4CCOC(C)(C)C4)ccc3n2[C@@]2(c3noc(=O)[nH]3)C[C@@H]2C)cc(C)c1F [Compound 121] | >122

Using the record for Cc1cc(-n2nc3c(c2-n2ccn(-c4ccc5c(cnn5C)c4F)c2=O)[C@@H]2CC[C@H]([C@@H]3F)N2C(=O)c2cc3cc([C@H]4CCOC(C)(C)C4)ccc3n2[C@@]2(c3noc(=O)[nH]3)C[C@@H]2C)cc(C)c1F [Compound 515] , report its EC50 Ratio.
>44

Repeat with Cc1cc(-n2nc3c(c2-n2ccn(-c4ccc5c(cnn5C)c4F)c2=O)[C@@H]2CC[C@H](C3)N2C(=O)c2cc3cc([C@H]4CCOC(C)(C)C4)ccc3n2[C@@]2(c3noc(=O)[nH]3)C[C@@H]2C)cc(C)c1F [Compound 36]
>94

Another compound: Cc1cc(-n2nc3c(c2-n2ccn(-c4ccc5c(cnn5C)c4F)c2=O)[C@@H]2CCC[C@H](C3)N2C(=O)c2cc3cc([C@H]4CCOC(C)(C)C4)ccc3n2[C@@]2(c3noc(=O)[nH]3)C[C@@H]2C)cc(C)c1F [Compound 433]
>333

And the next one, Cc1cc(-n2nc3c(c2-n2ccn(-c4ccc5c(cnn5C)c4F)c2=O)[C@@H]2CC[C@H](C3)N2C(=O)c2cc3cc([C@H]4CCOC5(CC5)C4)ccc3n2[C@@]2(c3noc(=O)[nH]3)C[C@@H]2C)cc(C)c1F [Compound 214] ?
>13
